The reported numbers originate from paper PMC9377236.

Assay: MTT assay, cytotoxic concentration (CC50) on Vero cells
Assay type: cell-based
Settings: African green monkey, mean ± SD, three repeats
value kind: CC50 (µg/mL)
Answers are plain numbers, in µg/mL.

Input: Kindly indicate its recorded CC50. Item: COc1cccc2c1C(=O)c1c(O)c3c(c(O)c1C2=O)C[C@@](O)(C(=O)CO)C[C@@H]3O[C@H]1C[C@H](N)[C@H](O)[C@H](C)O1 [Doxorubicin, doxorubicin, reference compound]
Output: 116

###

Tested on: HepG-2 cell line
Test: MTT cytotoxicity assay, HepG-2
Format: cell-based, human
Settings: selectivity index = CC50 (Vero) / IC50 (HepG-2)
Record form. Attribute: SI, HepG-2. Fill in for each entry.
Answers are plain numbers.

Reference set (3 entries):
molecule	SI, HepG-2
OC[C@@H](O)[C@@H](O)[C@H](O)[C@H](O)CO [Compound 7, D-mannitol]	2.52
CC(CO)C1CC2OC(=O)C3=COC(C)C(C=O)C3CC(=O)OCC1C2C (single isomer, unassigned; (-)) [Compound 2, (-)-1-Methyl-9-aldojasmigenin]	1.40
CC=C1C(OC2OC(CO)C(O)C(O)C2O)OC=C2C(=O)OCC(C)C3(O)CCC(C)C3COC(=O)CC21 (centres unmarked) [Compound 4, isojasminin]	3.03

Provide SI, HepG-2 for all items below, preserving their order.
1. CC=C1C(OC2OC(CO)C(O)C(O)C2O)OC=C2C(=O)OC3CC(C(C)CO)C(COC(=O)CC21)C3C (centres unmarked) [Compound 3, jasminin]
2. CC=C1C(OC2OC(CO)C(O)C(O)C2O)OC=C(C(=O)OC)C1CC(=O)OCC(C)C1CC2OC(=O)C3=COC(OC4OC(CO)C(O)C(O)C4O)C(=CC)C3CC(=O)OCC1C2C (centres unmarked) [Compound 5, jasmoside]
3. COc1cccc2c1C(=O)c1c(O)c3c(c(O)c1C2=O)C[C@@](O)(C(=O)CO)C[C@@H]3O[C@H]1C[C@H](N)[C@H](O)[C@H](C)O1 [Doxorubicin, doxorubicin, reference compound]
4. CC=C1C(OC)OC=C2C(=O)OC3CC(C(C)CO)C(COC(=O)CC21)C3C (single isomer, unassigned; (-)) [Compound 1, (-)-1-Methoxyjasmigenin]
5. O=c1ccc2ccccc2o1 [Compound 6, coumarin]

Output:
1. 1.01
2. 3.16
3. 3.65
4. 1.03
5. 1.19

###

System: MCF-7 cell line
Experiment: MTT cytotoxicity assay, MCF-7
Format: cell-based, human
Details: Homo sapiens, MCF7; MCF-7 breast cancer cell line, MTT assay, mean ± SD
value kind: IC50 (µg/mL)
Answers are plain numbers, in µg/mL.

Use these answered entries as a reference point.
compound	IC50 [µg/mL]
CC=C1C(OC)OC=C2C(=O)OC3CC(C(C)CO)C(COC(=O)CC21)C3C (single isomer, unassigned; (-)) [Compound 1, (-)-1-Methoxyjasmigenin]	78.9
O=c1ccc2ccccc2o1	194
CC=C1C(OC2OC(CO)C(O)C(O)C2O)OC=C2C(=O)OCC(C)C3(O)CCC(C)C3COC(=O)CC21 (centres unmarked)	43.1
CC=C1C(OC2OC(CO)C(O)C(O)C2O)OC=C2C(=O)OC3CC(C(C)CO)C(COC(=O)CC21)C3C (centres unmarked)	28.6

Provide reported IC50 for each item, in the same order as listed.
1. CC=C1C(OC2OC(CO)C(O)C(O)C2O)OC=C(C(=O)OC)C1CC(=O)OCC(C)C1CC2OC(=O)C3=COC(OC4OC(CO)C(O)C(O)C4O)C(=CC)C3CC(=O)OCC1C2C (centres unmarked) [Compound 5, jasmoside]
2. OC[C@@H](O)[C@@H](O)[C@H](O)[C@H](O)CO
3. CC(CO)C1CC2OC(=O)C3=COC(C)C(C=O)C3CC(=O)OCC1C2C (single isomer, unassigned; (-)) [Compound 2, (-)-1-Methyl-9-aldojasmigenin]
4. COc1cccc2c1C(=O)c1c(O)c3c(c(O)c1C2=O)C[C@@](O)(C(=O)CO)C[C@@H]3O[C@H]1C[C@H](N)[C@H](O)[C@H](C)O1 [Doxorubicin, doxorubicin, reference compound]

Output:
41.3
161
60.6
52.8
